test system: M. marinum in BV2 microglial cells; format: cell-based, Mycobacterium marinum
MEASURED_PROPERTY: IC50
Dear colleague, please send the value followed by its unit.

COc1cc2ccccc2cc1C(=O)NCc1cccc(-c2ccccc2OC)c1 [GSK695914A]    7.82 µM
COc1ccc2sc(Nc3nc(-c4ccccn4)cs3)nc2c1 [GSK690382A]    11.9 µM
O=C(NNC(=O)c1ccc([N+](=O)[O-])o1)c1ccc2ccccc2c1 [GSK347301A]    6.58 µM
Cc1ccc(C(=O)Nc2nc(-c3ccccn3)cs2)s1 [GSK1372568A]    5.33 µM

// next item, IC50 requested
Request: Tell me IC50 of Cc1ccccc1CN1CCC(O)(c2ccc(Cl)c(C(F)(F)F)c2)CC1 [GSK1985270A] when tested on M. marinum in BV2 microglial cells.
Response: 4.88 µM

====

system: M. marinum in A. castellanii; format: cell-based, Mycobacterium marinum; conditions: 10 µM
MEASURED_PROPERTY: Hits A. castellanii/M. marinum assay True/False

The cases that follow already have their Hits A. castellanii/M. marinum assay True/False on record.
Cc1nc2ccccn2c1C(=O)NCc1ccc2c(c1)OCO2 [GSK498315A]    FALSE
COc1cc2ccccc2cc1C(=O)NCc1cccc(-c2ccccc2OC)c1 [GSK695914A]    FALSE
CNc1nc(SCC(=O)N(C)Cc2ccc(Cl)s2)nc2ccccc12 [GSK1925843A]    FALSE
Cc1ccc2nc(C(F)(F)F)c(C(=O)NCc3ccc4c(c3)OCO4)n2c1 [GSK1829732A]    FALSE
O=C(NCc1ccc2c(c1)OCO2)c1c(C(F)(F)F)nc2ccccn12 [GSK1829671A]    FALSE
O=C(NC(Cc1ccccc1)C(=O)Nc1ccccc1N1CCOCC1)c1cccs1 (stereo not drawn) [GSK1055950A]    TRUE
Cc1ccc2nc(C(F)(F)F)c(C(=O)NCc3ccc(C)o3)n2c1 [GSK1829728A]    FALSE
Nc1nc(N)c2c(Sc3ccc4ccccc4c3)cccc2n1 [GW369335X]    TRUE
Cc1ccc2nc(C(F)(F)F)c(C(=O)NCc3cccs3)n2c1 [GSK1829729A]    FALSE
N#Cc1ccc2c(c1)CCN(CCCSc1ccnc3cc(C(F)(F)F)ccc13)CC2 [GSK254610A]    FALSE

Request: State, in one line, measured Hits A. castellanii/M. marinum assay True/False of CCCCS(=O)(=O)Nc1ccc2cnn(C)c2c1 [GSK3011724A]
Response: TRUE

Request: State, in one line, measured Hits A. castellanii/M. marinum assay True/False of Cc1ccc2nc(C(F)(F)F)c(C(=O)NCc3cc(Cl)cc(Cl)c3)n2c1 [GSK1829736A]
Response: FALSE

Request: State, in one line, measured Hits A. castellanii/M. marinum assay True/False of O=C(NCc1ccc(Oc2ccccc2)cc1)c1c(C(F)(F)F)nc2ccccn12 [GSK1829676A]
Response: FALSE

Request: State, in one line, measured Hits A. castellanii/M. marinum assay True/False of CNc1nc(SC)nc2ccccc12 [GSK353069A]
Response: TRUE

Request: State, in one line, measured Hits A. castellanii/M. marinum assay True/False of O=C(C=Cc1cccs1)N1CCN(Cc2ccc3c(c2)OCO3)CC1 [GW861072X]
Response: FALSE

====

system: D. discoideum GFP-ABD; details: 10 µM
MEASURED_PROPERTY: D. discoideum GFP-ABD normalised growth, control=1.00, mean
Write no unit; give the number alone.

COc1cc(C(F)(F)F)nc2ccc(C)c(N)c12 [GSK345724A]    0.95
Br.CC1(C)N=C(N)N=C(N)N1OCCc1ccc2ccccc2c1 [BRL-8088SA]    0.71
COc1cc2ccccc2cc1C(=O)NCc1cccc(-c2ccccc2OC)c1 [GSK695914A]    0.98
Cc1cc(OCC(=O)Nc2ccccc2)c2cc(Br)ccc2n1 [GW857165X]    0.90

Request: State, in one line, measured D. discoideum GFP-ABD normalised growth, control=1.00, mean of O=C(c1cc2c(s1)CCC2)N1CCN(Cc2ccc3c(c2)OCO3)CC1 [GSK1731114A]
Response: 0.44

====

test system: M. marinum in BV2 microglial cells; assay type: cell-based, Mycobacterium marinum
So basically, the class depends on measured IC50, and the ranges are low band (below 4 µM), middle band (4 µM to below 5 µM), high band (5 µM or more)

Sample answers from the record:
COc1ccc(CCNc2cc(-c3ccccc3)nc3ncnn23)cc1 [GSK888636A]    high band
CSc1ccc(-c2nnc(NC(=O)c3ccc(Cl)s3)o2)cc1 [GSK1650514A]    high band
Cc1n[nH]c(C)c1S(=O)(=O)NCc1nc(NCCCc2ccccc2)c2ccccc2n1 [GSK2059310A]    middle band
CCCCS(=O)(=O)Nc1ccc2cnn(C)c2c1 [GSK3011724A]    middle band
Cc1ccc2nc(C(F)(F)F)c(C(=O)NCc3cccs3)n2c1 [GSK1829729A]    low band

Request: Which band does CCn1c(=O)c(=O)[nH]c2cc(C(=O)Nc3ccccc3Nc3ccc(OC)cc3)ccc21 [GSK1385423A] fall in?
Response: low band

Request: Which band does Clc1ccc(CCNc2cc(-c3ccccc3)nc3ncnn23)cc1 [GSK1955236A] fall in?
Response: high band

Request: Which band does Cc1ccc2[nH]c(C3CCCNC3)c(-c3ccncc3)c2c1 (centres unmarked) [GSK1905227A] fall in?
Response: high band

Request: Which band does COc1ccc(-c2nc(-c3cccc(NC(=O)Cc4ccc(F)cc4)c3)no2)cc1OC [GSK2043267A] fall in?
Response: high band

Request: Which band does Cc1ccc2nc(C)c(-c3ccn(Cc4ccccc4)n3)n2c1 [GSK847920A] fall in?
Response: low band

Request: Which band does Cc1nnc(NCc2cccc(Cl)c2)c2ccccc12 [GSK1302651A] fall in?
Response: middle band

Request: Which band does CCOc1ccc(-c2nc(CNCCc3ccc(F)cc3)cs2)cc1.O=C(O)C(=O)O [GSK1759150A] fall in?
Response: middle band

====

Property: Intracellular infection assays: BV2 / M. marinum; scope: individual molecules
test system: M. marinum in BV2 microglial cells; type: cell-based, Mycobacterium marinum
Write no unit; give the number alone.

Fc1ccccc1-c1noc(N2CCN(Cc3ccc4c(c3)OCO4)CC2)n1 [GSK1434490A]    1.16
FC(F)(F)c1cc(SCc2ccccc2)nc(-c2ccccn2)n1 [GSK847913A]    1.39
Cc1ccc(CNC(=O)c2cnn3c2NC(c2ccc(C)cc2)CC3C(F)F)cc1 (stereo not shown) [GSK1180781A]    1.23
Cc1ccc(C2CC(C(F)(F)F)n3ncc(C(=O)NCc4ccc5c(c4)OCO5)c3N2)cc1 (stereo not shown) [GSK937733A]    1.64
Cc1cccc(-c2nc(Nc3ccncn3)c3sccc3n2)n1 [GSK153890A]    1.17

Request: State, in one line, measured Intracellular infection assays: BV2 / M. marinum of NC(=O)c1cc(-c2ccsc2)ccc1OCCOc1ccccc1 [GSK1365028A]
Response: 1.42

Request: State, in one line, measured Intracellular infection assays: BV2 / M. marinum of CN(C)S(=O)(=O)c1ccc(C(=O)Nc2nnc(-c3ccc(Cl)s3)o2)cc1 [GSK991960A]
Response: 1.20

Request: State, in one line, measured Intracellular infection assays: BV2 / M. marinum of COc1ccc2nc(C)cc(OCC(=O)Nc3ccccc3OC)c2c1 [GSK358607A]
Response: 0.98

====

Growth inhibition / Cytotoxicity assays: BV2 cells values recorded for BV2 cells
MEASURED_PROPERTY: Growth inhibition / Cytotoxicity assays: BV2 cells

Cc1cccc(-c2nc(Nc3ccncn3)c3c(C)csc3n2)n1 [GSK163574A]    False
Cc1ccc(C2CC(C(F)(F)F)n3ncc(C(=O)NCc4ccc5c(c4)OCO5)c3N2)cc1 (stereo not shown) [GSK937733A]    False
CN1CCN(c2cc(-c3ccc(F)cc3)nc(-c3ccncc3)n2)CC1 [GSK276001A]    False
CCC(Sc1nc2ccccc2o1)C(=O)Nc1nccs1 (stereo not shown) [GSK829969A]    True

====

test system: M. marinum in BV2 microglial cells; format: cell-based, Mycobacterium marinum
Property: Intracellular infection assays: BV2 / M. marinum; scope: individual compounds
Write no unit; give the number alone.

CCCCc1ccc(C(=O)Nc2nccc3ccccc23)nc1    1.27
O=C(CCSc1ccc(Cl)cc1)Nc1nc(-c2ccccn2)cs1 [GSK920703A]    1.24
CCc1ccc(CN2CCC3(CC2)OCCc2sccc23)s1 [GSK2200160A]    1.09
CCC(Sc1nc2ccccc2o1)C(=O)Nc1nccs1 (stereo not drawn) [GSK829969A]    1.56
c1ccc(Cc2nnc(Sc3ccnc(N4CCN(c5ccncc5)CC4)n3)n2CCN2CCOCC2)cc1 [GSK547511A]    1.36

Request: State, in one line, measured Intracellular infection assays: BV2 / M. marinum of COc1ccc(-c2ccc(Nc3cccc(S(=O)(=O)CCNCCc4cccs4)c3)nc2)cn1 [GSK1826089A]
Response: 1.09

Request: State, in one line, measured Intracellular infection assays: BV2 / M. marinum of Cc1nn(Cc2ccccc2)c(Cl)c1C(=O)NC1CCCCCC1 [GSK636544A]
Response: 1.35

Request: State, in one line, measured Intracellular infection assays: BV2 / M. marinum of O=C(Nc1nc(-c2ccccn2)cs1)c1cncn1-c1ccccc1 [GSK1691553A]
Response: 1.01

Request: State, in one line, measured Intracellular infection assays: BV2 / M. marinum of O=C(C1CCN(c2nnc(-n3cccc3)s2)CC1)N1CCC(Cc2ccccc2)CC1 [GSK2032710A]
Response: 1.25
